# SYSTEM: T1, soluble cynomolgus GPNMB (recombinant extracellular domain) (cynomolgus, UniProt Q14956 23-499 (human entry), limits assumed)
# T1 chain: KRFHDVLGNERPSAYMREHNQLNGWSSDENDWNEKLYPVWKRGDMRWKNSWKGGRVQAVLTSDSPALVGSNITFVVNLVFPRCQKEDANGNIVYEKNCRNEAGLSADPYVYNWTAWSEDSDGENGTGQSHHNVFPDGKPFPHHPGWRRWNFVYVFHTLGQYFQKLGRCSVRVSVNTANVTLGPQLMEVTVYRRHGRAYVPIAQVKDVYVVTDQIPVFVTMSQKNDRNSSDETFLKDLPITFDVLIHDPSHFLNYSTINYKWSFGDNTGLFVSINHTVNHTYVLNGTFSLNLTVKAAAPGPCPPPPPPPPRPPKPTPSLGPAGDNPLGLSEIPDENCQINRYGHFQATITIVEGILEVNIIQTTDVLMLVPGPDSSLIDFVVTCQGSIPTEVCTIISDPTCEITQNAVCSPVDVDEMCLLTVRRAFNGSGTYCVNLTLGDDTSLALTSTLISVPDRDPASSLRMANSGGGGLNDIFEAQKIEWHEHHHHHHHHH
# TEST_DETAILS: SPR Biacore, IgG captured
Could you please report measured koff for the items listed next?

anti-GPNMB antibody GPN-92 (antibody, V domains shown, humanized GPN-08) VH: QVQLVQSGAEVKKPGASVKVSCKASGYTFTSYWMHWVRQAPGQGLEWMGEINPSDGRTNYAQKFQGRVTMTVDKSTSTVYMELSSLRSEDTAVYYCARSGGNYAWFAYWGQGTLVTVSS VL: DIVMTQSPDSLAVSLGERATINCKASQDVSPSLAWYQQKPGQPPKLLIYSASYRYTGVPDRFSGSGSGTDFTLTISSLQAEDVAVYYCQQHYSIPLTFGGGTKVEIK    0.0057 s⁻¹

Next up:
Consider anti-GPNMB antibody GPN-87 (antibody, V domains shown) VH: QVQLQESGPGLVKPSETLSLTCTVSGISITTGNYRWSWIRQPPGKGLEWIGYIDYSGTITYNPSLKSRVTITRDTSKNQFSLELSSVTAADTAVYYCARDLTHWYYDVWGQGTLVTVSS VL: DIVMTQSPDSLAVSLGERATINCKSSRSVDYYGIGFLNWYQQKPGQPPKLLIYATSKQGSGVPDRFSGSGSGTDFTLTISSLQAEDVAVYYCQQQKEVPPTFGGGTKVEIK . Its measured koff is 0.0012 s⁻¹

Cited source for all entries: patent US20250270343A1
